Would you kindly list Proliferation inhibition rate (%) for each of these compounds?
tested on: T cells isolated from mouse spleens; assay: T cell proliferation inhibition (CFSE flow cytometry, anti-CD3/anti-CD28 stimulation); assay type: cell-based, C57BL/6 mice; conditions: concentration 50 μM, three days
Give bare numbers, in %.

{"columns": ["compound", "target.entity", "Proliferation inhibition rate (%)"],
 "data": [
  ["CC1CN(CCCCCCCCCCCCNC(=O)c2cccnc2N)C(C)CN1.Cl (stereo not shown)", "T cells isolated from mouse spleens", 100.00],
  ["Nc1ncccc1C(=O)NCCCCCCCCCCCCN1CCOC1=O", "T cells isolated from mouse spleens", 100.00],
  ["CN(CCCCCCCCCCCCNC(=O)c1cccnc1N)C(C)(C)C", "T cells isolated from mouse spleens", 100.00]
]}

Recorded Proliferation inhibition rate (%) of COC1CCN(CCCCCCCCCCCCNC(=O)c2cccnc2N)C1 (stereo not shown) , please.
100.00

---

Would you kindly list Relative cell viability (%) for each of these compounds?
System: Human B Lymphocyte cell line, SU-DHL-8
Assay: Relative cell viability, SU-DHL-8 (CCK-8)
Format: cell-based
Details: SU-DHL-8, 10 μM, 48 hours, untreated (DMSO) = 100%
Description: Human-derived B lymphoma cell line SU-DHL-8 (Cat. #CRL-2961) purchased from ATCC was cultured in RPMI-1640 medium containing 10% FBS, 100 U/mL penicillin, and 100 μg/mL streptomycin. The cell culture medium was then harvested, centrifuged at 1,300 rpm for 5 minutes, and the supernatant was removed. The cells were resuspended in the same medium and dispensed into a 96-well plate (Costar 96-well cell culture plate, Corning) at 90 μL per well, resulting in the conditions specified in Table 5. […]
Write the numeric value and append its unit.

Worked examples follow.
{"columns": ["compound", "Relative cell viability (%)"],
 "data": [
  ["CC1CN(CCCCCCCCCCCCNC(=O)c2cccnc2N)CC(C)O1 (centres unmarked) [Compound 21]", "7.68%"],
  ["CN1CCN(CCCCCCCCCCCCNC(=O)c2cccnc2F)CC1 [Compound 121]", "28.99%"]
]}

Dear colleague, could you send me Relative cell viability (%) for each of the items below? Thanks.
1. Nc1ncccc1C(=O)NCCCCCCCCCCCCN1CCN(CCO)CC1 [Compound 54]
2. C[C@H]1CNCCN1CCCCCCCCCCCCNC(=O)c1cccnc1N.Cl [Compound 37]
3. Nc1ncccc1C(=O)NCCCCCCCCCCCCN1CC(F)(F)C1 [Compound 122]

1: 4.05%; 2: 4.45%; 3: 31.91%

---

system: Human B Lymphocyte cell line, SU-DHL-8; experiment: Relative cell viability, SU-DHL-8 (CCK-8); type: cell-based; details: SU-DHL-8, 1 μM, 48 hours, untreated (DMSO) = 100%
Define the label as TRUE when Relative cell viability (%) is strictly less than 9% and as FALSE in all remaining cases.

As a guide, the following entries are already answered.
{"columns": ["compound", "target.entity", "label.class"],
 "data": [
  ["Nc1ncccc1C(=O)NCCCCCCCCCCCCN1CCC(F)C1 (stereo not shown) [Compound 26]", "Human B Lymphocyte cell line, SU-DHL-8", "TRUE"],
  ["CC1CN(C)C(CCCCCCCCCCCCNc2ccc3cncnc3n2)N1 (stereo not shown) [Compound 43]", "Human B Lymphocyte cell line, SU-DHL-8", "FALSE"],
  ["Cc1ccc(OC2CCN(CCCCCCCCCCCCNC(=O)c3cccnc3N)CC2)cc1 [Compound 51]", "Human B Lymphocyte cell line, SU-DHL-8", "TRUE"],
  ["Cc1ccc(C2CCN(CCCCCCCCCCCCNC(=O)c3cccnc3N)CC2)cc1 [Compound 55]", "Human B Lymphocyte cell line, SU-DHL-8", "FALSE"],
  ["C[C@H]1CNCCN1CCCCCCCCCCCCNC(=O)c1cccnc1N.Cl [Compound 37]", "Human B Lymphocyte cell line, SU-DHL-8", "TRUE"]
]}

is_below(Relative cell viability (%), 9%) for Nc1ncccc1C(=O)NCCCCCCCCCCCCN1CC(F)(F)C1 [Compound 122] ?
FALSE

Try this compound next: CN1CCN(CCCCCCCCCCCCNC(=O)c2cccnc2F)CC1 [Compound 121]
FALSE

Try this compound next: Nc1ncccc1C(=O)NCCCCCCCCCCCCN1CCC(Oc2ccncc2)CC1 [Compound 38]
TRUE

Try this compound next: CC1(C)CCN(CCCCCCCCCCCCNC(=O)c2cccnc2N)C1 [Compound 22]
TRUE

---

tested on: Human B Lymphocyte cell line, SU-DHL-8; assay: Relative cell viability, SU-DHL-8 (CCK-8); assay type: cell-based; conditions: SU-DHL-8, 30 μM, 48 hours, untreated (DMSO) = 100%
Define the label as 1.0 when Relative cell viability (%) is strictly less than 2% and as 0.0 in all remaining cases.

is_below(Relative cell viability (%), 2%) for Nc1ncccc1C(=O)NCCCCCCCCCCCCN1CCC(Oc2ccncc2)CC1 ?
1.0

Try this compound next: CC1CNCCN1CCCCCCCCCCCCNC(=O)c1cccnc1N (stereo not shown)
1.0

Try this compound next: Cl.O=C(NCCCCCCCCCCCCN1CCNCC1)c1ccc(-c2ccccc2)o1
0.0

Try this compound next: Nc1ncccc1C(=O)NCCCCCCCCCCCCN1CC(F)(F)C1
0.0

Try this compound next: CC1CN(CCCCCCCCCCCCNC(=O)c2cccnc2N)CC(C)O1 (stereo not shown)
0.0

Try this compound next: Nc1ncccc1C(=O)NCCCCCCCCCCCCN1CCN(CCO)CC1
0.0

Try this compound next: Cc1ccc(OC2CCN(CCCCCCCCCCCCNC(=O)c3cccnc3N)CC2)cc1
1.0

Try this compound next: Nc1ncccc1C(=O)NCCCCCCCCCCCCN1CC=CC1
0.0

Try this compound next: CC(C)(C)OC(=O)N[C@H]1CCN(CCCCCCCCCCCCNC(=O)c2cccnc2N)C1
0.0

Try this compound next: Nc1ncccc1C(=O)NCCCCCCCCCCCCN1CCS(=O)(=O)CC1
1.0

Try this compound next: Cl.Nc1ncccc1C(=O)NCCCCCCCCCCCCN1CC[C@H](N)C1
0.0

Try this compound next: CN1CCN(CCCCCCCCCCCCNC(=O)c2cccnc2F)CC1
0.0

Try this compound next: C[C@H]1CNCCN1CCCCCCCCCCCCNC(=O)c1cccnc1N.Cl
0.0

Try this compound next: CC1CCCN(CCCCCCCCCCCCNC(=O)c2cccnc2N)CC1 (stereo not shown)
0.0

---

Would you kindly list Relative cell viability (%) for each of these molecules?
Tested on: Human B Lymphocyte cell line, SU-DHL-8
Experiment: Relative cell viability, SU-DHL-8 (CCK-8)
Format: cell-based
Settings: SU-DHL-8, 10 μM, 48 hours, untreated (DMSO) = 100%
Experimental: Human-derived B lymphoma cell line SU-DHL-8 (Cat. #CRL-2961) purchased from ATCC was cultured in RPMI-1640 medium containing 10% FBS, 100 U/mL penicillin, and 100 μg/mL streptomycin. The cell culture medium was then harvested, centrifuged at 1,300 rpm for 5 minutes, and the supernatant was removed. The cells were resuspended in the same medium and dispensed into a 96-well plate (Costar 96-well cell culture plate, Corning) at 90 μL per well, resulting in the conditions specified in Table 5. […]

Worked examples follow.
{"columns": ["molecule", "Relative cell viability (%)"],
 "data": [
  ["Nc1ncccc1C(=O)NCCCCCCCCCCCCN1CC=CC1", "33.99%"],
  ["Cl.Nc1ncccc1C(=O)NCCCCCCCCCCCCN1CC[C@H](N)C1", "8.18%"],
  ["CC1CNCCN1CCCCCCCCCCCCNC(=O)c1cccnc1N (centres unmarked)", "0.64%"]
]}

Dear colleague, could you send me Relative cell viability (%) for each of the items below? Thanks.
1. CC1(C)CCN(CCCCCCCCCCCCNC(=O)c2cccnc2N)C1
2. CC1CCCN(CCCCCCCCCCCCNC(=O)c2cccnc2N)CC1 (centres unmarked)

["2.85%", "8.41%"]

---

tested on: Human B Lymphocyte cell line, SU-DHL-8; test: Relative cell viability, SU-DHL-8 (CCK-8); format: cell-based; conditions: SU-DHL-8, 50 μM, 48 hours, untreated (DMSO) = 100%
measured.parameter: Relative cell viability (%)
One number for each entry, in %.

{"columns": ["molecule", "Relative cell viability (%)"],
 "data": [
  ["Cl.O=C(NCCCCCCCCCCCCN1CCNCC1)c1ccc(-c2ccccc2)o1 [Compound 90]", 1.94],
  ["Cc1ccc(C2CCN(CCCCCCCCCCCCNC(=O)c3cccnc3N)CC2)cc1 [Compound 55]", 0.97]
]}

Dear colleague, could you send me Relative cell viability (%) for each of the items below? Thanks.
1. Nc1ncccc1C(=O)NCCCCCCCCCCCCN1CC=CC1 [Compound 129]
2. CC1(C)CCN(CCCCCCCCCCCCNC(=O)c2cccnc2N)C1 [Compound 22]
3. Nc1ncccc1C(=O)NCCCCCCCCCCCCN1CCN(CCO)CC1 [Compound 54]

1: 34.27; 2: 1.67; 3: 2.23
